Target: T1, Human BCMA-IHM (human, UniProt Q02223 1-54)
T1 construct: also called BCMA from human (mobile phase); not shown: 'IHM' is not explained; it may be a tag
T1 sequence (looked up): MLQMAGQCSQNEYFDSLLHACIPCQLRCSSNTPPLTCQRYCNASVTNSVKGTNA
Test: BLI (ForteBio Octet), IgG captured on AHC probe, antigen in solution, monovalent
pKd: −log10 of the molar value.
Respond with criterion met for pKd values of 9 and above, criterion not met for values below.

Q) Confirm if pKd reported for the binder antibody ADI-38481 (antibody, V domains shown) VH: QVQLVQSGAEVKKPGSSVKVSCKASGGTFSNDVISWVRQAPGQGLEWMGVIIPIFGIANYAQKFQGRVTITADESTSTAYMELSSLRSEDTAVYYCARGRGYYSSWLLDIWGQGTMVTVSS VL: DIQMTQSPSSLSASVGDRVTITCQASQDITNYLNWYQQKPGKAPKLLIYDASNLETGVPSRFSGSGSGTDFTFTISSLQPEDIATYYCQQAFDLITFGGGTKVEIK is 9 or above.
A) criterion met

Q) Hello, I need to know if anti-BCMA parent antibody ADI-34861 (antibody, V domains shown, Tested as IgG (captured by anti-human Fc probe)) VH: QLQLQESGPGLVKPSETLSLTCTVSGGSISSSSYYWGWIRQPPGKGLEWIGSISYSGSTYYNPSLKSRVTISVDTSKNQFSLKLSSVTAADTAVYYCARDRGDTILDVWGQGTMVTVSS VL: DIQMTQSPSSLSASVGDRVTITCRASQSISRYLNWYQQKPGKAPKLLIYAASSLQSGVPSRFSGSGSGTDFTLTISSLQPEDFATYYCQQKYFDITFGGGTKVEIK has measured pKd not below 9. Thanks!
A) criterion not met

Q) pKd >= 9 for antibody ADI-38491 (antibody, V domains shown) VH: QLQLQESGPGLVKPSETLSLTCTVSGGSIVSSSYYWTWIRQPPGKGLEWIGSISIAGSTYYNPSLKSRVTISVDTSKNQFSLKLSSVTAADTAVYYCARDRGDTILDVWGQGTMVTVSS VL: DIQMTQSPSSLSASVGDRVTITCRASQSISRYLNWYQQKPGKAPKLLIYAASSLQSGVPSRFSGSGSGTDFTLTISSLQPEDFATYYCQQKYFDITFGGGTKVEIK ?
A) criterion not met
